Values from the supplement of paper PMC10567573

B1: LOXL2 (parent)
chain: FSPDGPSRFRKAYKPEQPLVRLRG

Variants of: B1
Test: protein stability index of a GFP-peptide fusion (GPS, HEK-293T) (PSI 1-6); higher = more stable;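 note: lentivirally expressed fusions sorted by FACS into six bins by GFP to DsRed ratio, PSI derived from sequencing read proportions per bin multiplied by bin number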
Settings: c terminus: a fixed tail appended
Overview of reported protein stability index across a group of variants:

Asked: Which value of protein stability index has been reported for KSPDGPSRFRKAYKPEQPLVRLRG [F1K] in the records?
Given back: 3.11
